- Assay System: recombinant PRL-2 (Homo sapiens, UniProt Q12974)
- Construct: 6xHis (N, cleaved yes); made in house; host or cells: E. coli One Shot BL21 Star
- Sequence (Q12974 whole entry): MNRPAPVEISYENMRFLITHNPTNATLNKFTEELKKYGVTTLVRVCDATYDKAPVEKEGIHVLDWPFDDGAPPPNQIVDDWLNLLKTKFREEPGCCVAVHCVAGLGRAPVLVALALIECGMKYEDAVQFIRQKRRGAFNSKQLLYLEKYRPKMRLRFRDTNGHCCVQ
- Procedure Summary: In vitro phosphatase assay (DiFMUP hydrolysis), PRL-2;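 note: PRL-2 activity read as DiFMUP hydrolysis after 20 min at room temperature with drug, enzyme first pre-reduced at 4 °C for 20 min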
- Type: biochemical
- Condition Details: FDA-approved drug screen; compared to DMSO
Structures can show the parent of a compound that is named as a salt.
Measurement Type: % Phosphatase Activity (compared to DMSO) PRL-2 (%)

- Compound: "CCCN(CCC)CCc1cccc2c1CC(=O)N2 [Ropinirole HCl]"
  Reading Unit: "%"
  Test Result: 122
- Compound: "CCN(c1cc(-c2ccc(CN3CCOCC3)cc2)cc(C(=O)NCc2c(C)cc(C)[nH]c2=O)c1C)C1CCOCC1"
  Reading Unit: "%"
  Test Result: 77
- Compound: "CC(COc1ccccc1)N(CCCl)Cc1ccccc1 (centres unmarked) [Phenoxybenzamine HCl]"
  Reading Unit: "%"
  Test Result: 112
- Compound: "CC(C)(C)CC(C)(C)c1ccc(O)c(Cc2ccc(Cl)cc2Cl)c1"
  Reading Unit: "%"
  Test Result: 87
- Compound: "CCC(=O)O[C@]1(C(=O)CCl)[C@@H](C)C[C@H]2[C@@H]3CCC4=CC(=O)C=C[C@]4(C)[C@@]3(F)[C@@H](O)C[C@@]21C [Clobetasol propionate]"
  Reading Unit: "%"
  Test Result: 88
- Compound: "CS(=O)(=O)OCCCCOS(C)(=O)=O"
  Reading Unit: "%"
  Test Result: 95
- Compound: "CC(O)(CS(=O)(=O)c1ccc(F)cc1)C(=O)Nc1ccc(C#N)c(C(F)(F)F)c1 (centres unmarked) [Bicalutamide]"
  Reading Unit: "%"
  Test Result: 108
- Compound: "CC/C(=C(/CC)c1ccc(O)cc1)c1ccc(O)cc1"
  Reading Unit: "%"
  Test Result: 97
- Compound: "CCCCCCCN(CC)CCCC(O)c1ccc(NS(C)(=O)=O)cc1.CCCCCCCN(CC)CCCC(O)c1ccc(NS(C)(=O)=O)cc1.O=C(O)/C=C/C(=O)O (centres unmarked) [Ibutilide Fumarate]"
  Reading Unit: "%"
  Test Result: 128
- Compound: "COc1c2occc2cc2ccc(=O)oc12"
  Reading Unit: "%"
  Test Result: 99
- Compound: "CC(C)n1c(/C=C/C(O)CC(O)CC(=O)O)c(-c2ccc(F)cc2)c2ccccc21 (centres unmarked) [Fluvastatin Sodium]"
  Reading Unit: "%"
  Test Result: 95
- Compound: "CCC1(c2cccc(O)c2)CCCCN(C)C1 (centres unmarked) [Meptazinol HCl]"
  Reading Unit: "%"
  Test Result: 124
- Compound: "C[C@H]1c2cccc(O)c2C(=O)C2=C(O)[C@]3(O)C(=O)C(C(N)=O)=C(O)[C@@H](N(C)C)[C@@H]3[C@@H](O)[C@@H]21 [Doxycycline HCl]"
  Reading Unit: "%"
  Test Result: 83
- Compound: "O=S(=O)([O-])CCCS(=O)(=O)[O-].[Na+].[Na+] [Eprodisate (disodium)]"
  Reading Unit: "%"
  Test Result: 126
- Compound: "OC[C@H]1O[C@@H](c2ccc(Cl)c(Cc3ccc(O[C@H]4CCOC4)cc3)c2)[C@H](O)[C@@H](O)[C@@H]1O"
  Reading Unit: "%"
  Test Result: 93
- Compound: "CN(C)[C@@H](CCOc1cccc2ccccc12)c1ccccc1 [Dapoxetine HCl]"
  Reading Unit: "%"
  Test Result: 109
- Compound: "O=C(O)C(=O)O.[NH-][C@@H]1CCCC[C@H]1[NH-].[Pt+2]"
  Reading Unit: "%"
  Test Result: 97
